Origin of the recorded values: ChEMBL document CHEMBL1152588

SUBJECT OF TEST: ATP-dependent translocase ABCB1 (Homo sapiens)
Sequence (P08183 whole entry): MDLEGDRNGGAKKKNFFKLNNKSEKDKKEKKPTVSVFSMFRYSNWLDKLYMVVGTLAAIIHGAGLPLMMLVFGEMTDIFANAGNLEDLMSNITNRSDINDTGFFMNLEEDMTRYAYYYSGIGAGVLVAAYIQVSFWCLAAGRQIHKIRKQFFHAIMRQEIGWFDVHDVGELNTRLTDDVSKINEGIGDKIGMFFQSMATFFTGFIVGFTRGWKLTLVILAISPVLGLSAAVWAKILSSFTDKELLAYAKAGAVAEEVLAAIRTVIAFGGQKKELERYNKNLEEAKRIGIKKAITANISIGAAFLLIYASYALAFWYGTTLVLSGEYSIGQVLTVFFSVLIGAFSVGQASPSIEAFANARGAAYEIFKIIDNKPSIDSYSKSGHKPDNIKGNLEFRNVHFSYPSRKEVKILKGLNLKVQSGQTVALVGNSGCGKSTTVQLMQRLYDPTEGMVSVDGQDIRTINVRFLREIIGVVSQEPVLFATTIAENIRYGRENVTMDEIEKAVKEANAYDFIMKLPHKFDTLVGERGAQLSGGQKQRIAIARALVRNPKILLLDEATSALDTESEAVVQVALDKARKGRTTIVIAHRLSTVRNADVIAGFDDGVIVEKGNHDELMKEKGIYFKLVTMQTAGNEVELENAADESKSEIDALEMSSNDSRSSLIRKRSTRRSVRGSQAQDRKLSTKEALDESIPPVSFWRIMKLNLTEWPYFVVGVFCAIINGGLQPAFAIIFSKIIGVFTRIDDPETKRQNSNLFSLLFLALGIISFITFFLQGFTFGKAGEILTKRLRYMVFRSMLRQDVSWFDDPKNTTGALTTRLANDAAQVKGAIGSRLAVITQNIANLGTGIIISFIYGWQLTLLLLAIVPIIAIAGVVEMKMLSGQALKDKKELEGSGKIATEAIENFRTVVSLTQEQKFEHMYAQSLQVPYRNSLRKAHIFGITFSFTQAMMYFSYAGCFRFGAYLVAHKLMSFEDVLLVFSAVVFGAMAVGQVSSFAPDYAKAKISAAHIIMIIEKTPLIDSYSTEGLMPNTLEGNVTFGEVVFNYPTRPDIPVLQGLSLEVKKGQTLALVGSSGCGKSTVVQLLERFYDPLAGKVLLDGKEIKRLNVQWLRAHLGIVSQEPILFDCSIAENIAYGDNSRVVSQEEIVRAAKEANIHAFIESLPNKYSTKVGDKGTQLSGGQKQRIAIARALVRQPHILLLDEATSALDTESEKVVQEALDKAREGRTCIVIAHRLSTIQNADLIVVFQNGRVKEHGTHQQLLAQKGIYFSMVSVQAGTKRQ
TEST SUMMARY: Reversal of human MDR1-mediated multidrug resistance in mouse L5178Y cells expressing MDR1 assessed as forward scatter count measured by cell size ratio at 2 uM after 10 mins by flow cytometry
Format: cell-based
MEASURED PARAMETER: Activity

>>> quantitative_readout("C[C@H](C/C=C/C(C)(C)O)[C@H]1CC[C@@]2(C)[C@@H]3[C@@H](O)C=C4[C@@H](CC[C@H](O)[C@]4(C)CO)[C@]3(C)CC[C@]12C")
441.8
>>> quantitative_readout("CO[C@H]1C=C2[C@@H](CC[C@H](OC(C)=O)C2(C)C)[C@]2(C)CC[C@]3(C)[C@@H]([C@H](C)C[C@H](C=C(C)C)OC(C)=O)CC[C@@]3(C)[C@H]12 [KARAVOATE B]")
454.9
>>> quantitative_readout("COC(C)(C)/C=C/C[C@@H](C)[C@H]1CC[C@@]2(C)[C@@H]3[C@@H](O[C@H]4O[C@@H](CO)[C@H](O)[C@H](O)[C@@H]4O)C=C4[C@@H](CC[C@H](O)C4(C)C)[C@]3(C)CC[C@]12C [BALSAMINOSIDE A]")
429.6
>>> quantitative_readout("COC(C)(C)/C=C/C[C@@H](C)[C@H]1CC[C@@]2(C)[C@@H]3[C@@H](O)C=C4[C@@H](CC[C@H](O)[C@]4(C)CO)[C@]3(C)CC[C@]12C")
428.7
>>> quantitative_readout("CO[C@H]1C=C2[C@@H](CC[C@H](O)C2(C)C)[C@]2(C)CC[C@]3(C)[C@@H]([C@H](C)C[C@H](C=C(C)C)OC(C)=O)CC[C@@]3(C)[C@H]12 [KARAVOATE A]")
470.2
